All figures here come from patent US20070105771A1.

- testSystem: T1, human CD26-derived 13 mer peptide 22 (human)
- T1 peptide: LENSTFDEFGHSI
- protocol: peptide microarray
attributeMeasured: Mean Signal Value
Hey, just send me the number, nothing else.

Give Mean Signal Value for rhuMAb 411 (antibody, human IgG1, kappa, V domains shown, also called X411) VH: EVQLVESGAGVKQPGGTLRLTCTASGFSLTTYGVHWVRQAPGKGLEWVGVIWGDGRTDYDAAFMSRVTISKDTSKSTVYLQMNSLRAEDTAVYYCMRNRHDWFDYWGQGTTVTVSS VL: DILLTQSPSSLSATPGERATITCRASQGIRNNLNWYQQKPGQAPRLLIYYSSNLQSGVPSRFSGSGSGTDFTLTISRLQPEDVAAYYCQQSIKLPFTFGSGTKVEIKR 0.0192
